target: Type A-monoamine oxidase (Mus musculus); test: Type A-monoamine oxidase inhibitory activity; format: biochemical
Sequence (Q64133 whole entry): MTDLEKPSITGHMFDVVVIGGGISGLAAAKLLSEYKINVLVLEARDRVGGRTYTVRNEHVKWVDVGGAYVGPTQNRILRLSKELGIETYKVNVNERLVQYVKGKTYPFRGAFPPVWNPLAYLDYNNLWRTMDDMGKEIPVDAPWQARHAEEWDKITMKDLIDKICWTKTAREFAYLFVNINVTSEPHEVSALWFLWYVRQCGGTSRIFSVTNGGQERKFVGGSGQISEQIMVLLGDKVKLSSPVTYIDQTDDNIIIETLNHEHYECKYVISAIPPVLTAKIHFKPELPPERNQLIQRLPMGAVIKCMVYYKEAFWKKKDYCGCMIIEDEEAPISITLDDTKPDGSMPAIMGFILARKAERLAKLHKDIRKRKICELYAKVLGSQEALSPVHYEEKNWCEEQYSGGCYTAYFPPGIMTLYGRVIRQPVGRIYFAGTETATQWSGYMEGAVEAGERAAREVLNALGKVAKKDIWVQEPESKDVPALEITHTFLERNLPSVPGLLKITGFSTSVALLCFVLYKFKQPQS
Structures can show the parent of a compound that is named as a salt.
PARAMETER MEASURED: IC50

IC50 of CC(C)c1c(OCCN)noc1-c1ccc(Cl)cc1Cl [Example 57, hydrochloride] , assay on Type A-monoamine oxidase (Mus musculus), is < 28 nM

Values were extracted from patent US6005116A.
